Molecular target: pre-existing anti-drug antibodies (ADA) present in human sera
Assay: pre-existing ADA ELISA, scFv coated, human sera unspiked vs spiked
Below, each entry is listed alongside its reported Mean No of serum samples >30% inhibition (30% CCP) with SCP (serum samples).
quantity measured: Mean No of serum samples >30% inhibition (30% CCP) with SCP (serum samples)

PRO2944 (scFv 54-21-H03-sc01_(T146Q)) (scFv, PRO1922 variant; VH substitution, AHo numbering; also called PRO1922 T146Q) scFv: DIQMTQSPSSLSASVGDRVTITCQASESIYSSLAWYQQKPGKAPKLLIYLASTLASGVPSRFSGSGSGTDFTLTISSLQPEDFATYYCQSTDYTTSTHRNSFGTGTKVTVLGGGGGSGGGGSGGGGSGGGGSEVQLVESGGGLVQPGGSLRLSCAASGFSFSTTYYMCWVRQAPGKGLEWIGCTNTASSVRTYYATWAKGRFTISRDNSKNTVYLQMNSLRAEDTAVYYCARDMGFADYALNLWGQGTLVQVSS
3
PRO2937 (scFv 54-21-H03-sc01_(T101S, L144A, T146Q)) (scFv, PRO1922 variant; VH substitutions, AHo numbering; also called PRO1922 T101S-L144A-T146Q) scFv: DIQMTQSPSSLSASVGDRVTITCQASESIYSSLAWYQQKPGKAPKLLIYLASTLASGVPSRFSGSGSGTDFTLTISSLQPEDFATYYCQSTDYTTSTHRNSFGTGTKVTVLGGGGGSGGGGSGGGGSGGGGSEVQLVESGGGLVQPGGSLRLSCAASGFSFSTTYYMCWVRQAPGKGLEWIGCTNTASSVRTYYATWAKGRFTISRDNSKNTVYLQMNSLRAEDSAVYYCARDMGFADYALNLWGQGTAVQVSS
0
